- run-description: recombinant UMI read abundance after kanamycin selection (control-corrected) (log10(CPM+1)); higher = more efficient recombination; extreme values may be limits of the assay; sequences stand for … in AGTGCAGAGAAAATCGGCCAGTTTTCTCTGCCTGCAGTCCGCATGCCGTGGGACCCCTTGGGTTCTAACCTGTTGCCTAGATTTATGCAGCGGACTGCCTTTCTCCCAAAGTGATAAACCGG…AGGTTGGTTTCACT; site = the 11-nt donor
Assign classes using reported recombinant UMI read abundance (log10) values and the ranges class 0: < 0.02; class 1: ≥ 0.02 and < 1; class 2: ≥ 1, please.

sequence_data="CAATCGCCATGGACCGGTTTTCCCGGTAATCCGTATTTGTG (site CAAGCGCCTCA)" discrete_label="class 0"
sequence_data="CGAGGAGCATGGACCGGTTTTCCCGGTAATCCGTATTTGGG (site CGAGGATCTCC)" discrete_label="class 1"

Let's switch to this sequence now.
Field: class (recombinant UMI read abundance (log10)) — entry: CGATCTTCATGGACCGGTTTTCCCGGTAATCCGTATTTGCA (site CGATCATCTAG)
class 0

====

# reported recombinant barcode read abundance (log10); entries follow
- run-description: recombinant barcode read abundance after kanamycin selection (control-corrected) (log10(CPM+1)); higher = more efficient recombination; sequences stand for … in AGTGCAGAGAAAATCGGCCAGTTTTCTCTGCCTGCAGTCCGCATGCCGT…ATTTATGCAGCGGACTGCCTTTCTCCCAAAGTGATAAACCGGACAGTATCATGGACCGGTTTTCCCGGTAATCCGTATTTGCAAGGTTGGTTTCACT; site = the 11-nt target
API doc: respond with a numeric literal and nothing else, no unit.

// worked examples, recombinant barcode read abundance (log10) included
sequence_data="GAGCCCATATGGGTTCTAACCTGTTGCCTTA [GAGCCCACTAG_LTGcore_TA_RTGcore_TA] (site GAGCCCACTAG) (LTG core: TA, RTG core: TA)" assay_result=0.338
sequence_data="ATGCTTTAATGGGTTCTAACCTGTTGCCTAG [ATGCTTTCTAG_LTGcore_AA_RTGcore_CT] (site ATGCTTTCTAG) (LTG core: AA, RTG core: CT)" assay_result=0.0699
sequence_data="CGGTCCCTCTGGGTTCTAACCTGTTGCCAGA [CGGTCCCCTTG_LTGcore_TC_RTGcore_TC] (site CGGTCCCCTTG) (LTG core: TC, RTG core: TC)" assay_result=0.174
sequence_data="AAACACATTTGGGTTCTAACCTGTTGCCTAG [AAACACACTAG_LTGcore_TT_RTGcore_CT] (site AAACACACTAG) (LTG core: TT, RTG core: CT)" assay_result=0.0289

Please find the next sequence below.
Request the reported recombinant barcode read abundance (log10) associated with AGTCTTATATGGGTTCTAACCTGTTGCCAAG [AGTCTTACTTG_LTGcore_TA_RTGcore_CT] (site AGTCTTACTTG) (LTG core: TA, RTG core: CT)
0.0306

====

- run-description: recombinant barcode read abundance after kanamycin selection (control-corrected) (log10(CPM+1)); higher = more efficient recombination; sequences stand for … in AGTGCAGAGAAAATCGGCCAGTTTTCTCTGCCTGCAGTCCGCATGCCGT…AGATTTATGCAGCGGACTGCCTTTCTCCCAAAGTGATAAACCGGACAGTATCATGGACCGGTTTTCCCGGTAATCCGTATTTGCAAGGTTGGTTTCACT; site = the 11-nt target
observed-property: recombinant barcode read abundance (log10)

sequence_data="AGCTTAGCTTGGGTTCTAACCTGTTGCCT (site AGCTTAGCTAG)" assay_result=0.555
sequence_data="ACGAGCTCTTGGGTTCTAACCTGTTGCTG (site CCGCGCTCTCA)" assay_result=0.0264
sequence_data="GCGCCTCCTTGGGTTCTAACCTGTTGCAT (site GCGGCTCCTAT)" assay_result=0

Dear colleague, I am looking for the recorded recombinant barcode read abundance (log10) of the following sequence: ACGCTATCTTGGGTTCTAACCTGTTGCTT (site ACGCTATCTAA)
0.13

Which recombinant barcode read abundance (log10) is reported for this sequence? TATTCTACTTGGGTTCTAACCTGTTGCGC (site TATTCTACTTC)
0.0215

Quick check: recombinant barcode read abundance (log10) of ACATGTACTTGGGTTCTAACCTGTTGCAG (site ACATGTACTCT) ?
1.28

// query recombinant barcode read abundance (log10) value for entry GATTTCGCTTGGGTTCTAACCTGTTGCCT (site GATTTCGCTAG)
0.42

// lookup recombinant barcode read abundance (log10) for CTAGACACTTGGGTTCTAACCTGTTGCGG (site CTGGTCACTCC)
0.0881

What value of recombinant barcode read abundance (log10) has been recorded for this entry: CTACTAACTTGGGTTCTAACCTGTTGCAT (site CTACTAACTAG)
0.268

Quick check: recombinant barcode read abundance (log10) of GTCGTACCTTGGGTTCTAACCTGTTGCCT (site GTCCTACCTAG) ?
0.0361
